Each record here notes measured protein stability index.
B1: TLE6 (parent)
chain: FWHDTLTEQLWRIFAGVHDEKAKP

# Variants of: B1
# assay_details: protein stability index of a GFP-peptide fusion (GPS, HEK-293T) (PSI 1-6); higher = more stable;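 also: lentivirally expressed fusions sorted by FACS into six bins by GFP to DsRed ratio, PSI derived from sequencing read proportions per bin multiplied by bin number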
# condition_label: c terminus: a fixed tail appended
Form field (numeric): enter value without unit.

{"variant_annotation": "L6I", "observed_property": "protein stability index", "data_value": 2.36}
{"variant_annotation": "K23E", "observed_property": "protein stability index", "data_value": 1.65}
{"variant_annotation": "L10K", "observed_property": "protein stability index", "data_value": 2.59}

[in] Return value of protein stability index for input T7N , no commentary.
[out] 1.36

[in] Return value of protein stability index for input P24I , no commentary.
[out] 3.17

Data origin, for the record: the supplement of paper PMC10567573
